These data points were gathered from the supplement of paper PMC9732359.

This section presents sequences with their documented protein stability index values.
# assay.name: protein stability index of a GFP-peptide fusion (yeast GPS) (PSI 1-4); higher = more stable; sorted into four equal gates, so the index is relative within each strain
# measurement.context: doa10∆

# sequence.content, protein stability index
measured = [
    ("PLPLDLNVQVWHIEETG [ITC1]", 1.87),
    ("LIETVRQMKDVNAPLPT [RPN2]", 3.12),
    ("DNKMDSVKEDVKNNQEL [SMC4]", 2.85),
    ("FGNKPAGSTGFSFGQNN [YGR119C/NUP57]", 1.75),
    ("YCDSMGRPQRKMMSFQA [RPB5]", 3.5),
    ("NLLSKRNQEKKMEKKKS [SNM1]", 3.09),
    ("ALVAYTPTDVIGVVSLT [RRP6]", 1.96),
    ("HRINMDKYHPGYFGKVG [RPL28]", 3.4),
    ("NNNNTTTTTTTTNNNNT [SWI1]", 3.07),
    ("MEMIENRTMDGKPVSLP [FAS1]", 3.38),
    ("AVSEKAGHQTSAESWGT [RPL4A]", 2.24),
    ("GVWDVDNPLRQIPHFNN [BRR2]", 3.26),
    ("INDRNDRAIRKTCQWYS [DIS3]", 3.21),
    ("CISLSGVPNYLVQLEPH [SSN2]", 1.85),
    ("SGKETASAPLCSPKLPV [DLS1]", 2.89),
    ("TLAEVKAAGLTAAYART [RPL13A]", 1.38),
]

###

# assay.name: protein stability index of a GFP-peptide fusion (yeast GPS) (PSI 1-4); higher = more stable; sorted into four equal gates, so the index is relative within each strain
# measurement.context: ubr1∆
measured.property: protein stability index

# sequence.content, reported
measured = [
    ("KKVQALQSDKNFLDNCL [ITC1]", 3.05),
    ("PQQPMVKTKTIELIDYD [RET1]", 2.97),
    ("ALFQPPNFDWDLCSSVL [ROX3]", 2.92),
]

###

# assay.name: protein stability index of a GFP-peptide fusion (yeast GPS) (PSI 1-4); higher = more stable; sorted into four equal gates, so the index is relative within each strain
# measurement.context: san1∆
measured.property: protein stability index

# sequence.content, reported
records = [
    ("NVEESVSKADILLSHHR [POP5]", 2.91),
    ("RDDEPKLYQTEPSGIYS [PRE6]", 3.09),
    ("LNFYITNVPKAKKRKTL [SIR3]", 1.63),
    ("LSAADIVAQSEVEVSTR [RPO31]", 2.54),
    ("NAGTEKEKESKKDSKPA [YLR335W/NUP2]", 3.54),
    ("EKLLETNVSKQNDFLFS [ECM29]", 1.53),
]

###

Listed below: protein stability index values for each entry.
# assay.name: protein stability index of a GFP-peptide fusion (yeast GPS) (PSI 1-4); higher = more stable; sorted into four equal gates, so the index is relative within each strain
# measurement.context: doa10∆
measured.property: protein stability index

# sequence.content, measured.property, reported
rows = [
    ("EVRAISVAKIRFPETMD [RPO21]", "protein stability index", 3.08),
    ("SQFCYVSDDESNGEVLE [RPN14]", "protein stability index", 3.41),
    ("LKFFLVDENETVLESLG [LIN1]", "protein stability index", 3.26),
    ("EIMEERNVEQKLNELDE [NNF1]", "protein stability index", 3.11),
    ("FIRHVAKLNYKNLNPAS [ECM29]", "protein stability index", 2.49),
    ("NVKELWTEKKGKNVINR [SMD2]", "protein stability index", 3.46),
    ("PNCPRPNMSICIFGDAF [RPL1A]", "protein stability index", 1.75),
    ("RYENNDDDERVEYNLFT [BRN1]", "protein stability index", 3.17),
    ("IILPLDNATLTELVDKA [SSN2]", "protein stability index", 2.54),
    ("LKKLEKFMELERKTLER [SWI3]", "protein stability index", 2.95),
    ("NVRVGQAVETVGQAGRP [RPN1]", "protein stability index", 2.4),
    ("SVPEGTIVSNVEEKPGD [RPL2A]", "protein stability index", 3.23),
]
